Experiment: chemical genetic growth profiling, strain panel (AID 1159580);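 also: tested at 20 µM; growth read once vehicle control cultures reached saturation at 30 °C; lower values mean less growth of the strain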
Conditions: S. cerevisiae deletion strains, growth OD, locus YIL073C, strain SPO22
Out of some 5,500 compounds screened, about 2,000 (36%) were called active. About 18% were inconclusive and are not listed. Rule as the data show it: active = normalized growth mostly below about 0.91 (no sharp cut-off); inconclusive = no clear call, values can overlap the other calls; inactive = mostly above about 0.92. The list shows a part of the results. Where a SMILES comes first, the peptide text is derived from it. The star is where a group is joined. For = O=C*
Labels: active, inactive

| Compound | Class |
| --- | --- |
| Nc1c2c(nc3ccccc13)CCCC2 | inactive |
| CC(C)=CCCC1(C)C=Cc2c(O)c3c(c(CC=C(C)C)c2O1)OC12C(CC4CC1C(C)(C)OC2(C/C=C(/C)C(=O)O)C4O)C3=O (stereo unspecified) | inactive |
| Cc1cc(O)cc(C)c1Cl | inactive |
| Cc1ccc(S(=O)(=O)NC(=O)NN2CC3CCCC3C2)cc1 (stereo unspecified) | inactive |
| Cc1cn([C@H]2C[C@H](N=[N+]=[N-])[C@@H](CO)O2)c(=O)[nH]c1=O | inactive |
| Cc1cc(O)cc(O)c1C(=O)O | inactive |
| CC(C)CC(N(C)C)C1(c2ccc(Cl)cc2)CCC1 (stereo unspecified) | inactive |
| CCOP(=S)(OCC)Oc1nc(Cl)c(Cl)cc1Cl | inactive |
| CC1(C)CC[C@@]2(C(=O)O)C(C1)C1=CCC3[C@@]4(C)CC[C@H](O)C(C)(C)C4CC[C@@]3(C)[C@]1(C)C[C@@H]2O (stereo partly specified) | inactive |
| O=c1oc2cc(O)ccc2s1 | inactive |
| COC(=O)C[C@H]1C(C)(C)C2(O)OC34CC2C(=O)[C@]1(C)C3CC[C@]1(C)C4=CC(=O)O[C@H]1c1ccoc1 (stereo partly specified) | inactive |
| Nc1ccc(S(=O)(=O)c2ccc(N)cc2)cc1 | inactive |
| C/C=C(/C)C(=O)O[C@@H]1[C@H](OC(C)=O)[C@@]2(CO)C(CC1(C)C)C1=CCC3[C@@]4(C)CC[C@H](O[C@@H]5O[C@H](C(=O)O)[C@@H](O[C@@H]6O[C@H](CO)[C@@H](O)[C@H](O)[C@H]6O)[C@H](O)[C@H]5O[C@@H]5O[C@H](CO)[C@@H](O)[C@H](O)[C@H]5O)[C@](C)(CO)C4CC[C@@]3(C)[C@]1(C)C[C@H]2O (stereo partly specified) | inactive |
| Nc1c2ccccc2nc2ccccc12 (tested in a mixture with another compound) | active |
| C[C@@H]1CC[C@]2(C(=O)O)CC[C@]3(C)C(=CCC4[C@@]5(C)CC[C@H](O)C(C)(C)C5CC[C@]43C)C2[C@H]1C (stereo partly specified) | inactive |
| COc1ccc2c3c([nH]c2c1)C(C)=NCC3 | inactive |
| CC(=O)NCc1c(I)c(NC(C)=O)c(I)c(C(=O)O)c1I | inactive |
| CSCCC(NC=O)C(=O)NC(Cc1ccccc1)C(=O)O (stereo not drawn) (For-Met-Phe-OH; configuration not given here) | inactive |
| O=C1c2c(O)cccc2Cc2cccc(O)c21 | inactive |
| C[C@@H]1C(=O)O[C@H]2[C@H]1CC[C@@]1(C)C=CC(=O)[C@@]3(C)O[C@@]213 | inactive |
| Cc1cc(O)cc(=O)o1 | inactive |
| CCCCCCCCCCCC[C@H](C(=O)O)[C@@H](C)C(=O)O | inactive |
| Cc1cc(O)c2c(c1)Cc1cccc(O)c1C2=O | inactive |
| CC(=O)O[C@@H]1CC[C@@]2(C)C(CC[C@]3(C)C2CC=C2C4CC(C)(C)CC[C@]4(C(=O)O)CC[C@]23C)C1(C)C (stereo partly specified) | inactive |
| C/C=C1\[C@H]2C=C(C)C[C@]1(N)c1ccc(=O)[nH]c1C2 | inactive |
| CC(C)=CCCC1(C)C=Cc2c(O)c3c(c(CC=C(C)C)c2O1)OC12C(=CCCC1C(C)(C)O[C@@]2(C/C=C(\C)C(=O)O)C(=O)O)C3=O (stereo partly specified) | inactive |
| COc1cc(N)c(Cl)cc1C(=O)NC1CCN(Cc2ccccc2)CC1 | inactive |
| C[C@@H]1OC(O[C@H]2[C@H](OC(=O)[C@]34CCC(C)(C)CC3C3=CCC5[C@@]6(C)CC[C@H](OC7O[C@@H](C)[C@H](O[C@@H]8OC[C@@H](O)[C@H](O)[C@H]8O)[C@@H](O)[C@H]7O)C(C)(C)C6CC[C@@]5(C)[C@]3(C)CC4O)OC[C@H](O)[C@H]2O)[C@H](O)[C@H](O)[C@H]1O[C@@H]1O[C@H](CO)[C@@H](O)[C@H](O)[C@H]1O (stereo partly specified) | inactive |
| CCOP(=S)(OCC)Oc1cc(C)nc(C(C)C)n1 | inactive |
| COc1ccc2c(c1)c(CC(=O)O)c(C)n2C(=O)c1ccc(Cl)cc1 | inactive |
| CC1(C)CC[C@]2(C)CC[C@]3(C)C(=CCC4[C@@]5(C)CC[C@H](O)C(C)(C)C5CC[C@]43C)C2C1 (stereo partly specified) | inactive |
| N[C@H](C(=O)O)[C@@H]1CC(Cl)=NO1 | active |
| COc1ccc2c(c1)c(CC(=O)OCC(=O)O)c(C)n2C(=O)c1ccc(Cl)cc1 | inactive |
| NCCC(=O)N[C@@H](Cc1cnc[nH]1)C(=O)O | inactive |
| CC1(C)CC[C@]2(C(=O)O)CC[C@]3(C)C(=CCC4[C@@]5(C)CC[C@@H](O)C(C)(C)C5CC[C@]43C)C2C1 (stereo partly specified) | inactive |
| Cc1cc(O)ccc1Cl | inactive |
